Assign activity (%) to each entry below.
Target: AMPA receptor (human GluR1 flip/stargazin expressed in CHO-K1 cells) (Homo sapiens)
Construct: expressed in transfected cells; host or cells: CHO-K1
Sequence (P42261 19-906 isoform P42261-2 limits assumed): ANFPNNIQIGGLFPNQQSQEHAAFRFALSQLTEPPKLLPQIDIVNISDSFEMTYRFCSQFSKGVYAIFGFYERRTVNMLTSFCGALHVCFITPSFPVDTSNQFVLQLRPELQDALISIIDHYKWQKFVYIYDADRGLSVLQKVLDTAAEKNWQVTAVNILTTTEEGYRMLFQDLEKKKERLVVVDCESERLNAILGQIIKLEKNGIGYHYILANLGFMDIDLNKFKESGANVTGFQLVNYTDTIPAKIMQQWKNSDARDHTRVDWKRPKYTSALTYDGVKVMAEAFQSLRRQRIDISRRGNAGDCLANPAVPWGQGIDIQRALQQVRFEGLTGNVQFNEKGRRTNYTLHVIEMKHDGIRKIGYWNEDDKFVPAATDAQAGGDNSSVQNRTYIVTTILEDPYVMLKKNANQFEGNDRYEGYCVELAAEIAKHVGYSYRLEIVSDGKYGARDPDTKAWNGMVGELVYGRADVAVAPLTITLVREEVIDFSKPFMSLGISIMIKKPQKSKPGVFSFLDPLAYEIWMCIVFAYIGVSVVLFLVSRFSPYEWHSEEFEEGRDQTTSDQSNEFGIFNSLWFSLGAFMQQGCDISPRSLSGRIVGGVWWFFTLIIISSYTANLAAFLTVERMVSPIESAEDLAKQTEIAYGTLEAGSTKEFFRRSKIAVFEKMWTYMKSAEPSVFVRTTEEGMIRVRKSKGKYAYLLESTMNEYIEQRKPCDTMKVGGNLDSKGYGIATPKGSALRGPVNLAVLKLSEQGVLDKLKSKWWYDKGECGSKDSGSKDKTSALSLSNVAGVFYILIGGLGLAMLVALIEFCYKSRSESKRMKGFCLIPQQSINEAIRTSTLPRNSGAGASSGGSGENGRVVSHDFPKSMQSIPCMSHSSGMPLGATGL
Sequence (Q9Y698 whole entry partner): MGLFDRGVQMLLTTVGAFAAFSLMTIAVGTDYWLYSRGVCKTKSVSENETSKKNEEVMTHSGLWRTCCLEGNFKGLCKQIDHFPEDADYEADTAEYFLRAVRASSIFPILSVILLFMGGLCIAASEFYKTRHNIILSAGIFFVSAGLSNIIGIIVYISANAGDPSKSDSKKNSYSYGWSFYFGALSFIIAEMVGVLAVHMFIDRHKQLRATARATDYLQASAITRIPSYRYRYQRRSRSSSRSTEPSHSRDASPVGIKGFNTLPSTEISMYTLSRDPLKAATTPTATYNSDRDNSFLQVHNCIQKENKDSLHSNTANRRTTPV
Assay: AMPA receptor function enhancing activity using calcium influx as index
Type: cell-based
Details: change in fluorescence level in 3 min, 100% = 3 mM glutamic acid + 300 μM cyclothiazide, 0% = 3 mM glutamic acid only
Note: a bare number is incomplete; add the unit.

Give its activity (%) value. Item: CCS(=O)(=O)N[C@H]1CCC(F)(F)C[C@@H]1COc1ccc(-n2cc(C)cn2)cc1 (relative stereo) [Example 141] 78%

Now the molecule CCS(=O)(=O)N[C@H]1CCSC[C@@H]1COc1ccc(C2CCOCC2)cc1 [Example 529] 89%

Now the molecule Cc1nc(-c2ccc(OC[C@H]3COCC[C@@H]3NS(C)(=O)=O)cc2)cs1 (racemic) [Example 263] 66%
